Origin of values: paper PMC6383769

tgt: human D2 (D2 long receptor) (Homo sapiens)
Sequence (P14416 whole entry): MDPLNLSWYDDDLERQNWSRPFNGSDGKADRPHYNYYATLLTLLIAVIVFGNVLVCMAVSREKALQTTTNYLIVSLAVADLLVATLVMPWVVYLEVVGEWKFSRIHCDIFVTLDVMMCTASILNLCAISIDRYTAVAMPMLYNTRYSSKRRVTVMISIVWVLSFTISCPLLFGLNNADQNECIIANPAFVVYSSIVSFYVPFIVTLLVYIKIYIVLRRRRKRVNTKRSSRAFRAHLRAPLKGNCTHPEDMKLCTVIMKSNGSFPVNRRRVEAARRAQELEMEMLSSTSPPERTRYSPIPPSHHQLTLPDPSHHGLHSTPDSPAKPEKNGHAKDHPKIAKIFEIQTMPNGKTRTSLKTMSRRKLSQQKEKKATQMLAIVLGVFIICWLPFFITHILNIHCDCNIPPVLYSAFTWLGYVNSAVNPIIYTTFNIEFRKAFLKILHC
test summary: biochemical
pKi: −log10 of the molar value.

{"smiles representation": "C#CCOc1ccccc1CN1CC[C@@]2(C1)C(=O)Nc1ccccc12", "pKi": "< 5.00"}
{"smiles representation": "C[C@H]1CN(C2CC2)C[C@H]1NC(=O)c1cc2cc(Br)ccc2o1", "pKi": "< 5.00"}
{"smiles representation": "CC1(C)CCN(CC(=O)NC[C@@H]2CCC[C@H]2C2CC2)C1", "pKi": "< 5.00"}
{"smiles representation": "O=C(CN1C[C@@H](O)C[C@@H]1C1CC1)Nc1ccc(Br)cc1", "pKi": "< 5.00"}
{"smiles representation": "C[C@H](CNC(=O)c1coc2ccc(Cl)cc12)N1CCCC1", "pKi": "< 5.00"}
{"smiles representation": "C[C@H](N[C@H](CO)Cc1ccccc1)c1cc2c(s1)CCC2", "pKi": "< 5.00"}
{"smiles representation": "CC(C)N1C[C@H](C)[C@H](NC(=O)c2cccc3cc[nH]c23)C1", "pKi": "< 5.00"}
{"smiles representation": "OC[C@H](Cc1ccc(F)cc1)NCc1ccn(-c2ccccc2)n1", "pKi": 5.23}
{"smiles representation": "C=Cn1cc(CNC[C@@H](CO)Cc2ccccc2Br)cn1", "pKi": "< 5.00"}
{"smiles representation": "C[C@@H]1CCCN(C(C)(C)CNc2nc(C3CC3)ns2)C1", "pKi": "< 5.00"}
{"smiles representation": "CCC[C@H](C)[C@H](CO)NCCc1nc(-c2ccc(Cl)cc2)no1", "pKi": "< 5.00"}
{"smiles representation": "Cc1cccc(CCNCc2ccn(-c3ccccc3)n2)c1", "pKi": 5.24}
{"smiles representation": "Cc1ccc(CNCCCn2cccn2)cc1Br", "pKi": "< 5.00"}
{"smiles representation": "CCCC[C@H](CN)NC(=O)Nc1cnn(-c2ccc(C)cc2C)c1", "pKi": 5.70}
{"smiles representation": "C[C@H]1CN(C2CC2)C[C@H]1NC(=O)c1cc2cc([N+](=O)[O-])ccc2s1", "pKi": "< 5.00"}
{"smiles representation": "CC(C)N1C[C@H](C)[C@H](NC(=O)N2Cc3ccccc3[C@@H]2C)C1", "pKi": "< 5.00"}
{"smiles representation": "C=C(C)COCCNC[C@H](O)Cc1ccc(C(F)(F)F)cc1", "pKi": "< 5.00"}
{"smiles representation": "CCC(CC)[C@@H](O)CNCc1cnc(-c2ccccc2F)s1", "pKi": "< 5.00"}
